FYI, the data here is from paper PMC11631053.

Biological target: TAS2R45 (Homo sapiens)
Sequence (P59539 whole entry): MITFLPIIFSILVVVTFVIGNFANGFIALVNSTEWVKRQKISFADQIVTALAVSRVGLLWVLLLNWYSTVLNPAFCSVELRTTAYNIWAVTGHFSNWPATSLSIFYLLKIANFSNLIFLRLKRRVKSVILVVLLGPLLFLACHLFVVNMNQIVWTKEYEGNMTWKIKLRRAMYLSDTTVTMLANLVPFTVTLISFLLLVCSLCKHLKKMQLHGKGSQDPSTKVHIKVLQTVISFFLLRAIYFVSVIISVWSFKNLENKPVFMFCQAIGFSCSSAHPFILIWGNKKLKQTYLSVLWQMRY
Assay: Calcium mobilization assay, HEK293T-Gα16gust44 cells expressing TAS2R45
Conditions: maximal concentration tested: sucralose 100 mM, neotame 30 µM, Ace-K 300 mM, RebA 4 mM, RebM 4 mM, mogroside V 5 mM, erythritol 200 mM, D-allulose 500 mM, thaumatin 100 mM
ATTRIBUTE MEASURED: Response of TAS2R45

Below, each entry is followed by its recorded Response of TAS2R45 result.
CC1=CC(=O)NS(=O)(=O)O1 = −
OC[C@H]1O[C@H](O[C@]2(CCl)O[C@H](CCl)[C@@H](O)[C@@H]2O)[C@H](O)[C@@H](O)[C@H]1Cl = −
COC(=O)[C@H](Cc1ccccc1)NC(=O)[C@H](CC(=O)O)NCCC(C)(C)C = −
O=C(CO)[C@H](O)[C@H](O)[C@H](O)CO = −
OC[C@@H](O)[C@@H](O)CO = −

Query :: # query: Response of TAS2R45 of entry C=C1C[C@@]23CC[C@H]4[C@@](C)(CCC[C@@]4(C)C(=O)O[C@@H]4O[C@H](CO)[C@@H](O)[C@H](O[C@@H]5O[C@H](CO)[C@@H](O)[C@H](O)[C@H]5O)[C@H]4O[C@@H]4O[C@H](CO)[C@@H](O)[C@H](O)[C@H]4O)[C@@H]2CC[C@]1(O[C@@H]1O[C@H](CO)[C@@H](O)[C@H](O[C@@H]2O[C@H](CO)[C@@H](O)[C@H](O)[C@H]2O)[C@H]1O[C@@H]1O[C@H](CO)[C@@H](O)[C@H](O)[C@H]1O)C3 [RebM, Rebaudioside M]
Result :: −

Query :: Record request: Response of TAS2R45 value, item C[C@H](CC[C@@H](O[C@@H]1O[C@H](CO[C@@H]2O[C@H](CO)[C@@H](O)[C@H](O)[C@H]2O)[C@@H](O)[C@H](O)[C@H]1O[C@@H]1O[C@H](CO)[C@@H](O)[C@H](O)[C@H]1O)C(C)(C)O)[C@H]1CC[C@@]2(C)[C@@H]3CC=C4[C@@H](CC[C@H](O[C@@H]5O[C@H](CO[C@@H]6O[C@H](CO)[C@@H](O)[C@H](O)[C@H]6O)[C@@H](O)[C@H](O)[C@H]5O)C4(C)C)[C@]3(C)[C@H](O)C[C@]12C [Mogroside V, mogroside V]
Result :: −

###

Target: TAS2R3 (Homo sapiens)
Sequence (Q9NYW6 whole entry): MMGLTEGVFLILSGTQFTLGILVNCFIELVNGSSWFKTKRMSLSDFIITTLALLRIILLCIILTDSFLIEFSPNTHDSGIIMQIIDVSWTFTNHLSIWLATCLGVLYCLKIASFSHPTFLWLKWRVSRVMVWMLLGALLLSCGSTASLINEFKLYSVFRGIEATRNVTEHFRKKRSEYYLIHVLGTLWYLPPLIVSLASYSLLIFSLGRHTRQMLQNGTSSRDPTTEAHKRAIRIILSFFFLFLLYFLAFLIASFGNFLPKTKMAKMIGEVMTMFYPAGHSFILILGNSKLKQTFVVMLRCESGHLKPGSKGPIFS
Test: Calcium mobilization assay, HEK293T-Gα16gust44 cells expressing TAS2R3
Details: maximal concentration tested: sucralose 100 mM, neotame 30 µM, Ace-K 300 mM, RebA 4 mM, RebM 4 mM, mogroside V 5 mM, erythritol 200 mM, D-allulose 500 mM, thaumatin 100 mM
ATTRIBUTE MEASURED: Response of TAS2R3

C[C@H](CC[C@@H](O[C@@H]1O[C@H](CO[C@@H]2O[C@H](CO)[C@@H](O)[C@H](O)[C@H]2O)[C@@H](O)[C@H](O)[C@H]1O[C@@H]1O[C@H](CO)[C@@H](O)[C@H](O)[C@H]1O)C(C)(C)O)[C@H]1CC[C@@]2(C)[C@@H]3CC=C4[C@@H](CC[C@H](O[C@@H]5O[C@H](CO[C@@H]6O[C@H](CO)[C@@H](O)[C@H](O)[C@H]6O)[C@@H](O)[C@H](O)[C@H]5O)C4(C)C)[C@]3(C)[C@H](O)C[C@]12C [Mogroside V, mogroside V] = −
C=C1C[C@@]23CC[C@H]4[C@@](C)(CCC[C@@]4(C)C(=O)O[C@@H]4O[C@H](CO)[C@@H](O)[C@H](O[C@@H]5O[C@H](CO)[C@@H](O)[C@H](O)[C@H]5O)[C@H]4O[C@@H]4O[C@H](CO)[C@@H](O)[C@H](O)[C@H]4O)[C@@H]2CC[C@]1(O[C@@H]1O[C@H](CO)[C@@H](O)[C@H](O[C@@H]2O[C@H](CO)[C@@H](O)[C@H](O)[C@H]2O)[C@H]1O[C@@H]1O[C@H](CO)[C@@H](O)[C@H](O)[C@H]1O)C3 [RebM, Rebaudioside M] = −
COC(=O)[C@H](Cc1ccccc1)NC(=O)[C@H](CC(=O)O)NCCC(C)(C)C = −
